Listed compounds paired with reported Helicity (%)
test: Circular dichroism spectroscopy, percent helicity; type: physicochemical; details: CD, TFE/water (1:1), 0.1 mg/ml, 20°C
Bridge positions count the residues as written; N and C are the ends. Square brackets hold non-standard residues; d marks the D form. Peptide text beside a SMILES is read from it. R8 = C=CCCCCCC[C@@](C)(N)C(=O)O; S5 = C=CCCC[C@](C)(N)C(=O)O
Recorded metric: Helicity (%)

1. CC(C)C[C@H](NC(=O)[C@H](CCCCN)NC(=O)[C@]1(C)CCCC=CCCC[C@](C)(NC(=O)[C@H](Cc2ccccc2)NC(=O)[C@H](CCCNC(=N)N)NC(=O)[C@H](CCCCN)NC(=O)[C@@H](N)C(C)C)C(=O)N[C@@H](CCCCN)C(=O)N[C@@H](Cc2ccccc2)C(=O)N[C@@H](Cc2ccccc2)C(=O)N1)C(=O)N[C@@H](CCCCN)C(=O)N[C@@H](CCCCN)C(=O)N[C@@H](CC(C)C)C(=O)N[C@H](C(N)=O)C(C)C [B1-L-2, VKRFS5KFFS5KLKKLV-NH2] (H-VKRF[S5]KFF[S5]KLKKLV-NH2; staple 5-9; N-terminus assumed)	35.5
2. CC(C)C[C@@H]1NC(=O)[C@H](CCCCN)NC(=O)[C@H](CCCNC(=N)N)NC(=O)[C@H](Cc2ccccc2)NC(=O)[C@H](Cc2ccccc2)NC(=O)[C@](C)(NC(=O)[C@H](CCCCN)NC(=O)[C@H](Cc2ccccc2)NC(=O)[C@H](CCCNC(=N)N)NC(=O)[C@H](CCCCN)NC(=O)[C@@H](N)C(C)C)CCCCCCC=CCCC[C@@](C)(C(=O)N[C@@H](CC(C)C)C(=O)N[C@H](C(N)=O)C(C)C)NC(=O)[C@H](CCCCN)NC1=O [B1-L-7, VKRFKR8FFRKLKS5LV-NH2] (H-VKRFK[R8]FFRKLK[S5]LV-NH2; staple 6-13; N-terminus assumed)	31.6

* * *

In this section, each of the compounds is paired with its reported Helicity (%).
assay: Circular dichroism spectroscopy, percent helicity; type: physicochemical; conditions: CD, TFE/water (1:1), 0.1 mg/ml, 20°C
Bridge positions count the residues as written; N and C are the ends. Square brackets hold non-standard residues; d marks the D form. Peptide text beside a SMILES is read from it. S5 = C=CCCC[C@](C)(N)C(=O)O
Recorded metric: Helicity (%)

1) CC(C)C[C@H](NC(=O)[C@H](CCCCN)NC(=O)[C@H](CCCNC(=N)N)NC(=O)[C@H](Cc1ccccc1)NC(=O)[C@H](Cc1ccccc1)NC(=O)[C@]1(C)CCC/C=C\CCC[C@](C)(NC(=O)[C@@H](N)C(C)C)C(=O)N[C@@H](CCCNC(=N)N)C(=O)N[C@@H](Cc2ccccc2)C(=O)N[C@@H](CCCCN)C(=O)N1)C(=O)N[C@@H](CCCCN)C(=O)N[C@@H](CCCCN)C(=O)N[C@@H](CC(C)C)C(=O)N[C@H](C(N)=O)C(C)C [B1-L-1, VS5RFKS5FFRKLKKLV-NH2] (H-V[S5]RFK[S5]FFRKLKKLV-NH2; staple (Z) 2-6)	47.2
2) CC(C)C[C@H](NC(=O)[C@H](CCCCN)NC(=O)[C@H](CCCCN)NC(=O)[C@H](CC(C)C)NC(=O)[C@]1(C)CCCC=CCCC[C@](C)(NC(=O)[C@H](CCCCN)NC(=O)[C@H](Cc2ccccc2)NC(=O)[C@H](CCCNC(=N)N)NC(=O)[C@H](CCCCN)NC(=O)[C@@H](N)C(C)C)C(=O)N[C@@H](Cc2ccccc2)C(=O)N[C@@H](Cc2ccccc2)C(=O)N[C@@H](CCCNC(=N)N)C(=O)N1)C(=O)N[C@H](C(N)=O)C(C)C [B1-L-3, VKRFKS5FFRS5LKKLV-NH2] (H-VKRFK[S5]FFR[S5]LKKLV-NH2; staple 6-10; N-terminus assumed)	37
3) CC(C)C[C@@H]1NC(=O)[C@H](CCCCN)NC(=O)[C@@](C)(NC(=O)[C@H](Cc2ccccc2)NC(=O)[C@H](Cc2ccccc2)NC(=O)[C@H](CCCCN)NC(=O)[C@H](CCCCN)NC(=O)[C@H](Cc2ccccc2)NC(=O)[C@H](CCCNC(=N)N)NC(=O)[C@H](CCCCN)NC(=O)[C@@H](N)C(C)C)CCCC=CCCC[C@@](C)(C(=O)N[C@@H](CC(C)C)C(=O)N[C@H](C(N)=O)C(C)C)NC(=O)[C@H](CCCCN)NC1=O [B1-L-4, VKRFKKFFS5KLKS5LV-NH2] (H-VKRFKKFF[S5]KLK[S5]LV-NH2; staple 9-13; N-terminus assumed)	35

* * *

biological target: α-chymotrypsin (Bos taurus); assay: in vitro; settings: α-chymotrypsin (0.5 ng/μl) in PBS buffer
Bridge positions count the residues as written; N and C are the ends. Square brackets hold non-standard residues; d marks the D form. Peptide text beside a SMILES is read from it. R8 = C=CCCCCCC[C@@](C)(N)C(=O)O; S5 = C=CCCC[C@](C)(N)C(=O)O
// reported half-life for each item listed
Recorded metric: half-life

1) CC(C)C[C@H](NC(=O)[C@H](CCCCN)NC(=O)[C@H](CCCCN)NC(=O)[C@H](CC(C)C)NC(=O)[C@]1(C)CCCC=CCCC[C@](C)(NC(=O)[C@H](CCCCN)NC(=O)[C@H](Cc2ccccc2)NC(=O)[C@H](CCCNC(=N)N)NC(=O)[C@H](CCCCN)NC(=O)[C@@H](N)C(C)C)C(=O)N[C@@H](Cc2ccccc2)C(=O)N[C@@H](Cc2ccccc2)C(=O)N[C@@H](CCCNC(=N)N)C(=O)N1)C(=O)N[C@H](C(N)=O)C(C)C [B1-L-3, VKRFKS5FFRS5LKKLV-NH2] (H-VKRFK[S5]FFR[S5]LKKLV-NH2; staple 6-10; N-terminus assumed)	> 1 h
2) CC(C)C[C@@H]1NC(=O)[C@H](CCCCN)NC(=O)[C@H](CCCNC(=N)N)NC(=O)[C@H](Cc2ccccc2)NC(=O)[C@H](Cc2ccccc2)NC(=O)[C@](C)(NC(=O)[C@H](CCCCN)NC(=O)[C@H](Cc2ccccc2)NC(=O)[C@H](CCCNC(=N)N)NC(=O)[C@H](CCCCN)NC(=O)[C@@H](N)C(C)C)CCCCCCC=CCCC[C@@](C)(C(=O)N[C@@H](CC(C)C)C(=O)N[C@H](C(N)=O)C(C)C)NC(=O)[C@H](CCCCN)NC1=O [B1-L-7, VKRFKR8FFRKLKS5LV-NH2] (H-VKRFK[R8]FFRKLK[S5]LV-NH2; staple 6-13; N-terminus assumed)	> 1 h
3) CC(C)C[C@@H]1NC(=O)[C@H](CCCCN)NC(=O)[C@@](C)(NC(=O)[C@H](Cc2ccccc2)NC(=O)[C@H](Cc2ccccc2)NC(=O)[C@H](CCCCN)NC(=O)[C@H](CCCCN)NC(=O)[C@H](Cc2ccccc2)NC(=O)[C@H](CCCNC(=N)N)NC(=O)[C@H](CCCCN)NC(=O)[C@@H](N)C(C)C)CCCC=CCCC[C@@](C)(C(=O)N[C@@H](CC(C)C)C(=O)N[C@H](C(N)=O)C(C)C)NC(=O)[C@H](CCCCN)NC1=O [B1-L-4, VKRFKKFFS5KLKS5LV-NH2] (H-VKRFKKFF[S5]KLK[S5]LV-NH2; staple 9-13; N-terminus assumed)	> 1 h
